# Test system: Candida albicans
# Assay Details: Antifungal activity against Candida albicans by broth microdilution test
# Format: functional, organism-based
Quick rule for you: MIC90 under 30 mg/L gets yes (1), anything else gets no (0).

Mol Smiles: C[C@@H]([C@H](N)C(=O)N[C@H](C(=O)O)[C@H]1O[C@@H](n2ccc(=O)[nH]c2=O)[C@H](O)[C@@H]1O)[C@H](O)c1ccc(O)cn1
Discrete Label: no (0)

Mol Smiles: CC1(C)O[C@@H]2[C@H](O1)[C@@H](Cn1cc(COC(=O)Cc3ccc(O)cc3)nn1)O[C@H]2n1ccc(=O)[nH]c1=O
Discrete Label: no (0)

Mol Smiles: CC1(C)O[C@@H]2[C@H](O1)[C@@H](Cn1cc(COc3ccc(F)cc3)nn1)O[C@H]2n1ccc(=O)[nH]c1=O
Discrete Label: no (0)

Mol Smiles: CC1(C)O[C@@H]2[C@H](O1)[C@@H](Cn1cc(COC(=O)Cc3ccc(Cl)cc3Cl)nn1)O[C@H]2n1ccc(=O)[nH]c1=O
Discrete Label: no (0)

Mol Smiles: CC1(C)O[C@@H]2[C@H](O1)[C@@H](Cn1cc(COC(=O)CCl)nn1)O[C@H]2n1ccc(=O)[nH]c1=O
Discrete Label: no (0)

Mol Smiles: CC1(C)O[C@@H]2[C@H](O1)[C@@H](Cn1cc(COc3cccc4ccccc34)nn1)O[C@H]2n1ccc(=O)[nH]c1=O
Discrete Label: no (0)

Mol Smiles: C[C@@H]1[C@H](O)[C@@H](C)/C=C/C=C/C=C/C=C/C=C/C=C/C=C/[C@H](O[C@@H]2O[C@H](C)[C@@H](O)[C@H](N)[C@@H]2O)C[C@@H]2O[C@](O)(C[C@@H](O)C[C@@H](O)[C@H](O)CC[C@@H](O)C[C@@H](O)CC(=O)O[C@H]1C)C[C@H](O)[C@H]2C(=O)O
Discrete Label: yes (1)

Mol Smiles: CC1(C)O[C@@H]2[C@H](O1)[C@@H](Cn1cc(COC(=O)Cc3ccccc3)nn1)O[C@H]2n1ccc(=O)[nH]c1=O
Discrete Label: no (0)

Mol Smiles: COc1ccc(OCc2cn(C[C@H]3O[C@@H](n4ccc(=O)[nH]c4=O)[C@@H]4OC(C)(C)O[C@@H]43)nn2)cc1
Discrete Label: yes (1)

Mol Smiles: CC1(C)O[C@@H]2[C@H](O1)[C@@H](Cn1cc(COC(=O)COc3ccccc3)nn1)O[C@H]2n1ccc(=O)[nH]c1=O
Discrete Label: no (0)

====

# System: Candida albicans
# Assay Details: Antifungal activity against Candida albicans by broth microdilution test
# Assay type: functional, organism-based

Mol Smiles: CC1(C)O[C@@H]2[C@H](O1)[C@@H](Cn1cc(COc3ccc([N+](=O)[O-])cc3)nn1)O[C@H]2n1ccc(=O)[nH]c1=O
Study System: Candida albicans
Readout Relation: >
MIC90 [µg/mL]: 128

Mol Smiles: CC1(C)O[C@@H]2[C@H](O1)[C@@H](Cn1cc(COc3ccc(Cl)cc3)nn1)O[C@H]2n1ccc(=O)[nH]c1=O
Study System: Candida albicans
Readout Relation: =
MIC90 [µg/mL]: 32

Mol Smiles: Cc1cccc(OCc2cn(C[C@H]3O[C@@H](n4ccc(=O)[nH]c4=O)[C@@H]4OC(C)(C)O[C@@H]43)nn2)c1
Study System: Candida albicans
Readout Relation: =
MIC90 [µg/mL]: 128

Mol Smiles: CC1(C)O[C@@H]2[C@H](O1)[C@@H](Cn1cc(COc3ccccc3)nn1)O[C@H]2n1ccc(=O)[nH]c1=O
Study System: Candida albicans
Readout Relation: >
MIC90 [µg/mL]: 128

Mol Smiles: CC1(C)O[C@@H]2[C@H](O1)[C@@H](Cn1cc(COC(=O)C(=O)c3ccccc3)nn1)O[C@H]2n1ccc(=O)[nH]c1=O
Study System: Candida albicans
Readout Relation: >
MIC90 [µg/mL]: 128

Mol Smiles: OC(Cn1cncn1)(Cn1cncn1)c1ccc(F)cc1F
Study System: Candida albicans
Readout Relation: =
MIC90 [µg/mL]: 32

Mol Smiles: Cc1ccccc1CC(=O)OCc1cn(C[C@H]2O[C@@H](n3ccc(=O)[nH]c3=O)[C@@H]3OC(C)(C)O[C@@H]32)nn1
Study System: Candida albicans
Readout Relation: =
MIC90 [µg/mL]: 32
